Taken from patent US9416128B2.

Parameter: inhibition at 3 µM. Scope: all listed entries.
Target under test: wild-type human cardiac sodium channel, hNaV 1.5 (Peak INa) (Homo sapiens, UniProt Q14524)
Sequence (Q14524 whole entry): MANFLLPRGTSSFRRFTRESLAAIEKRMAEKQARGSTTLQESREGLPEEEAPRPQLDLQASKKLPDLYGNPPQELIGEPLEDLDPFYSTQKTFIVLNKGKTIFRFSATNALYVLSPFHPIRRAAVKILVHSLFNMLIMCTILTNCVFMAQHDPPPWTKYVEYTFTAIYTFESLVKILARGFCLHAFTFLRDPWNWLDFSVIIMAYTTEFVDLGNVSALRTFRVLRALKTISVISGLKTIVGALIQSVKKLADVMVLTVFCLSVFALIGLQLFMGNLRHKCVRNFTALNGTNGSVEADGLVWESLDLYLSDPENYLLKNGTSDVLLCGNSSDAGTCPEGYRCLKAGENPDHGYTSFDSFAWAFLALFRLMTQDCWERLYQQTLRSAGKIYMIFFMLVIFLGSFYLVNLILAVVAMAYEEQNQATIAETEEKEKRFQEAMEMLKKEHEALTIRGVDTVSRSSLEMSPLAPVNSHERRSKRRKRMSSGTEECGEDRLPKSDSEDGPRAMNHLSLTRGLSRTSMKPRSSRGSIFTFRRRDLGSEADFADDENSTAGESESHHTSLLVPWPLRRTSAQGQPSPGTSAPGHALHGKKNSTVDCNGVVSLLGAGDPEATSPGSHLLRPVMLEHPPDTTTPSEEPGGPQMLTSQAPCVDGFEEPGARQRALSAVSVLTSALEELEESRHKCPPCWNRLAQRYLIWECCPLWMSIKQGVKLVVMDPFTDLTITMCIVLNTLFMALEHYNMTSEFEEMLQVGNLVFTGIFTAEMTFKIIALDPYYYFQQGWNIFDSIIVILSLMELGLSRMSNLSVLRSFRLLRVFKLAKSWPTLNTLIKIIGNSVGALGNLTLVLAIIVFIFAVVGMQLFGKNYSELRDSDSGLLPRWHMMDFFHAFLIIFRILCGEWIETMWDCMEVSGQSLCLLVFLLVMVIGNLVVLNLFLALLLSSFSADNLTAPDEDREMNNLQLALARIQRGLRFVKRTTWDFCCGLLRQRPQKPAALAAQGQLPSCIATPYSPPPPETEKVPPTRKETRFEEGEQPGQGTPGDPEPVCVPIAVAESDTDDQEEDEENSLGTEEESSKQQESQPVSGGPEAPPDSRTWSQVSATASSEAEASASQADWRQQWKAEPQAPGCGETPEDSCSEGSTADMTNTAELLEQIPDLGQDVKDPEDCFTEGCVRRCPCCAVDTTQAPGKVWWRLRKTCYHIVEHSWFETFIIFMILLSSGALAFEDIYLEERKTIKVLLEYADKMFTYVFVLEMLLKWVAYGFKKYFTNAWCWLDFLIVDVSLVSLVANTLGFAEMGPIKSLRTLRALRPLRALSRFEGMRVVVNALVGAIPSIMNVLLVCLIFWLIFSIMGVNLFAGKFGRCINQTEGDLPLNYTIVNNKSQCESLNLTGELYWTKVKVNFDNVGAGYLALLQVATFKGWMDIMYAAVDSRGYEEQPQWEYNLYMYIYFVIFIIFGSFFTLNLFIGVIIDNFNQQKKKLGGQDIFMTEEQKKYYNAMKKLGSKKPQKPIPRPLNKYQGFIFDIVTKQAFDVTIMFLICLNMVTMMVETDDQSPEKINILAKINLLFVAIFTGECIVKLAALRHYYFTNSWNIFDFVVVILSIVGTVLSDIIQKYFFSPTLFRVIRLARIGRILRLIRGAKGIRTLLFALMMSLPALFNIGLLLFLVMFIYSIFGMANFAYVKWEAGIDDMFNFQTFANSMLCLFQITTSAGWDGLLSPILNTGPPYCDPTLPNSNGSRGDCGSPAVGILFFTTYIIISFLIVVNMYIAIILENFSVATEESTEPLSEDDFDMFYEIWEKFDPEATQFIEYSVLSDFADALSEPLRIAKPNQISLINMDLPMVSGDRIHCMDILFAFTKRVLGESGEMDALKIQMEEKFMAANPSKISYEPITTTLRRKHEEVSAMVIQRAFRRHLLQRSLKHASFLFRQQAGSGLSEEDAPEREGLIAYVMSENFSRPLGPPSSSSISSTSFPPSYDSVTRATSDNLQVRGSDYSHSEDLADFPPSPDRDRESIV
Experiment summary: Peak INa screening assay (tonic block and use-dependent block)
Format: cell-based
Setup conditions: read-out: Nav1.5 Peak TB 3 uM, % inhibition, tonic block of peak INa at 3 uM; 0.1 Hz; holding -100 mV
Please report the result as a number followed by the unit.

compound=O=C1Oc2ccc(-c3ccc(OC(F)(F)F)cc3F)cc2CN1Cc1ncccn1 value_type="inhibition at 3 µM" measured=14.9%

Entry CC1c2cc(-c3ccc(Cl)c(F)c3)ccc2OC(=O)N1Cc1ncccn1 (stereo not shown) , inhibition at 3 µM reported as 19.4%

Quick note, inhibition at 3 µM for `CCCOc1cc(OC(F)(F)F)ccc1-c1ccc2c(c1)CN(Cc1ncccn1)C(=O)O2` landed at 12.9%

Value of measured inhibition at 3 µM for the entry `O=C1Oc2ccc(-c3ccc(OC(F)(F)F)c(F)c3)cc2CN1Cc1ncccn1` : 14.2%
